Listed here: items and their measured minimal inhibitory concentration (MIC) Psa.
# System: Pseudomonas aeruginosa (Psa)
# PROTOCOL_SUMMARY: Minimal inhibitory concentration, Psa
# Type: cell-based
Ends that are not written are not given here.
RECORDED_METRIC: minimal inhibitory concentration (MIC) Psa

SUBSTANCE: R-G-G-R-L-C-Y-A-R-R-R-F-A-V-C-V-G-R-OH (RGGRLCYARRRFAVCVGR-OH; cysteine pairing not given here) [IB-288]
VALUE_MEASURED: 0.05

SUBSTANCE: R-G-G-R-L-C-Y-C-R-R-R-F-C-V-C-V-G-R-OH (RGGRLCYCRRRFCVCVGR-OH; cysteine pairing not given here) [IB-247]
VALUE_MEASURED: 0.11

SUBSTANCE: R-G-G-G-L-C-Y-T-R-P-R-F-T-V-C-V-G-R (RGGGLCYTRPRFTVCVGR-NH2; cysteine pairing not given here) [IB-226]
VALUE_MEASURED: 0.07

* * *

# Tested on: Pseudomonas aeruginosa (Psa)
# PROTOCOL_SUMMARY: Minimal inhibitory concentration, Psa
# Type: cell-based
Ends that are not written are not given here.
RECORDED_METRIC: minimal inhibitory concentration (MIC) Psa

SUBSTANCE: R-G-G-R-V-C-Y-C-R-G-R-F-C-V-C-V-G-R (RGGRVCYCRGRFCVCVGR) [IB-398]
ASSAY_TARGET: Pseudomonas aeruginosa (Psa)
VALUE_MEASURED: 1
//
SUBSTANCE: R-G-G-G-L-C-Y-A-R-K-G-F-A-V-C-V-G-R (RGGGLCYARKGFAVCVGR-NH2; cysteine pairing not given here) [IB-227]
ASSAY_TARGET: Pseudomonas aeruginosa (Psa)
VALUE_MEASURED: 0.01
//
SUBSTANCE: R-G-G-G-L-C-Y-A-R-G-F-I-A-V-C-F-G-R (RGGGLCYARGFIAVCFGR-NH2; not fully specified; printed as R-G-G-G-L-C-Y-A-R-G-F-I-A-V-C-F-G-R; cysteine pairing not given here) [IB-216]
ASSAY_TARGET: Pseudomonas aeruginosa (Psa)
VALUE_MEASURED: 14
//
SUBSTANCE: R-G-G-G-L-C-Y-C-R-R-G-F-C-V-C-F-G-R (RGGGLCYCRRGFCVCFGR-NH2; cysteine pairing not given here) [IB-223]
ASSAY_TARGET: Pseudomonas aeruginosa (Psa)
VALUE_MEASURED: 0.14
//
SUBSTANCE: R-G-G-R-L-C-Y-A-R-R-R-F-A-V-C-V-G-R (RGGRLCYARRRFAVCVGR) [IB-289]
ASSAY_TARGET: Pseudomonas aeruginosa (Psa)
VALUE_MEASURED: 0.05
//
SUBSTANCE: R-G-G-R-V-C-Y-C-R-G-R-F-C-V-C-V (RGGRVCYCRGRFCVCV) [IB-400]
ASSAY_TARGET: Pseudomonas aeruginosa (Psa)
VALUE_MEASURED: 2
//
SUBSTANCE: R-G-G-G-L-C-Y-C-R-R-P-F-C-V-C-V-G-R (RGGGLCYCRRPFCVCVGR-NH2; cysteine pairing not given here) [IB-224]
ASSAY_TARGET: Pseudomonas aeruginosa (Psa)
VALUE_MEASURED: 0.06

* * *

# Tested on: Pseudomonas aeruginosa (Psa)
# PROTOCOL_SUMMARY: Minimal inhibitory concentration, Psa
# Assay type: cell-based
Square brackets hold non-standard residues; d marks the D form. Ends that are not written are not given here. Sar = CNCC(=O)O
RECORDED_METRIC: minimal inhibitory concentration (MIC) Psa

SUBSTANCE: R-G-G-R-L-C-Y-C-R-X-R-F-C-V-C-V-G-R-OH (X=NMeG) (RGGRLCYCR[Sar]RFCVCVGR-OH; ends and bridges not checked) [IB-341]
ASSAY_TARGET: Pseudomonas aeruginosa (Psa)
VALUE_MEASURED: 2
//
SUBSTANCE: R-G-G-G-L-C-Y-C-F-P-K-F-C-V-C-V-G-R (RGGGLCYCFPKFCVCVGR-NH2; cysteine pairing not given here) [IB-218]
ASSAY_TARGET: Pseudomonas aeruginosa (Psa)
VALUE_MEASURED: 1.2
//
SUBSTANCE: R-G-G-R-V-C-Y-C-R-G-R-F-C-V-C-V-OH (RGGRVCYCRGRFCVCV-OH; cysteine pairing not given here) [IB-401]
ASSAY_TARGET: Pseudomonas aeruginosa (Psa)
VALUE_MEASURED: 1
//
SUBSTANCE: R-G-G-G-L-C-Y-A-R-G-W-I-A-F-C-V-G-R (RGGGLCYARGWIAFCVGR-NH2; cysteine pairing not given here) [IB-214]
ASSAY_TARGET: Pseudomonas aeruginosa (Psa)
VALUE_MEASURED: 0.59
//
SUBSTANCE: R-G-G-R-L-C-Y-C-R-X-R-F-C-V-C-V-G-R (X=NMeG) (RGGRLCYCR[Sar]RFCVCVGR-NH2; ends and bridges not checked) [IB-342]
ASSAY_TARGET: Pseudomonas aeruginosa (Psa)
VALUE_MEASURED: 1.67
